biological target: CDC2L6/CycC (CDK19) (Homo sapiens); construct: purchased Carna Biosciences Inc; assay: CDK19 inhibitory activity (Kinase Tracer-236 / Eu-anti-GST fluorescence assay); type: binding; set-up: concentration or dose not given beside the values; settings: test compound concentration given as '1 1.1.1\4' [sic]
Sequence (Q9BWU1 whole entry, one chain of several): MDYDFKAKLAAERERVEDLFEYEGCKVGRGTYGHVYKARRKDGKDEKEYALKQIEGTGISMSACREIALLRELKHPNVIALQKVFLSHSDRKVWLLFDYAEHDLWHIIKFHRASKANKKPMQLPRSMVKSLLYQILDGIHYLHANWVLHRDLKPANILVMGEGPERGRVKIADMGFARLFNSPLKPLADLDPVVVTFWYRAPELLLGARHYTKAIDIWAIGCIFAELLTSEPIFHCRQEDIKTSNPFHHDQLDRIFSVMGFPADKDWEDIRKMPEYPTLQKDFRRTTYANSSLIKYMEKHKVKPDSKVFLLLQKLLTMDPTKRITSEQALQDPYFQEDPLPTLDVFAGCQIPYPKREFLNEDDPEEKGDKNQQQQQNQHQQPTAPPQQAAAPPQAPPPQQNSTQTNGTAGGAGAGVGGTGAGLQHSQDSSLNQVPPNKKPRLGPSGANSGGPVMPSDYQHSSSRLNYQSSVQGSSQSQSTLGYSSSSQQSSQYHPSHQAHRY
Percent inhibition of CDK19 activity (%) reference
Note: unit % is implicit; provide only the numeric part.

molecule="CNC(=O)c1ccc(Oc2sc(C(N)=O)c3c2-c2sncc2CC3)cn1 [Example 17]" value_type="Percent inhibition of CDK19 activity (%)" value=101
molecule="NC(=O)c1sc(Oc2ccc(N)nc2)c2c1CCc1cnsc1-2 [Example 93]" value_type="Percent inhibition of CDK19 activity (%)" value=96

Fetch value of Percent inhibition of CDK19 activity (%) on CDC2L6/CycC (CDK19) (Homo sapiens) for NC(=O)c1sc(Oc2ccc(C(=O)N3CCC3)nc2)c2c1CCc1cnsc1-2 [Example 104] .
102

Identify measured Percent inhibition of CDK19 activity (%) obtained with CDC2L6/CycC (CDK19) (Homo sapiens) for CN(CCO)C(=O)c1ccc(Oc2sc(C(N)=O)c3c2-c2sncc2CC3)cn1 [Example 105] .
96

For CDC2L6/CycC (CDK19) (Homo sapiens), give Percent inhibition of CDK19 activity (%) of the listed molecule: CCC(=O)Nc1ccc(Oc2sc(C(N)=O)c3c2-c2sncc2CC3)c(C)n1 [Example 133]
101

Report value only: Percent inhibition of CDK19 activity (%), CDC2L6/CycC (CDK19) (Homo sapiens), CC1(C(=O)Nc2ccc(Oc3sc(C(N)=O)c4c3-c3sncc3CC4)cn2)COC1 [Example 20]
99

Recall the reported Percent inhibition of CDK19 activity (%) of COCCNC(=O)c1ccc(Oc2sc(C(N)=O)c3c2-c2sncc2CC3)cn1 [Example 138] when tested on CDC2L6/CycC (CDK19) (Homo sapiens).
100

Supply Percent inhibition of CDK19 activity (%) measured with CDC2L6/CycC (CDK19) (Homo sapiens) for Cc1nc(C(=O)N(C)C)ccc1Oc1sc(C(N)=O)c2c1-c1sncc1CC2 [Example 116] .
99

----------
Entries and their Percent inhibition of CDK8 activity (%)
Biological target: CDK8/CycC (Homo sapiens, UniProt P49336)
Construct: purchased Carna Biosciences
Sequence (P49336 whole entry): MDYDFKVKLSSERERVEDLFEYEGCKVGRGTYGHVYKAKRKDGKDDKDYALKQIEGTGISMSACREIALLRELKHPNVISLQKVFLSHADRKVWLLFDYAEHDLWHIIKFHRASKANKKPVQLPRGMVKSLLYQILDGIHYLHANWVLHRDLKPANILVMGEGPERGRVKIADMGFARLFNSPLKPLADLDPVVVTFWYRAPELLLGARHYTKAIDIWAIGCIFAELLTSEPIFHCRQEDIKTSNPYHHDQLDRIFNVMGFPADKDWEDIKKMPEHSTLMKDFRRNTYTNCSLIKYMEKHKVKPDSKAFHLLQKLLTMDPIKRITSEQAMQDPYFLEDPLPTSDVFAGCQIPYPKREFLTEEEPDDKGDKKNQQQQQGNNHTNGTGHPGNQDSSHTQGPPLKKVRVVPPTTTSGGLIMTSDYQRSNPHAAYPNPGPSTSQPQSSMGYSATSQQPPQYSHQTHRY
Sequence (P24863 whole entry partner): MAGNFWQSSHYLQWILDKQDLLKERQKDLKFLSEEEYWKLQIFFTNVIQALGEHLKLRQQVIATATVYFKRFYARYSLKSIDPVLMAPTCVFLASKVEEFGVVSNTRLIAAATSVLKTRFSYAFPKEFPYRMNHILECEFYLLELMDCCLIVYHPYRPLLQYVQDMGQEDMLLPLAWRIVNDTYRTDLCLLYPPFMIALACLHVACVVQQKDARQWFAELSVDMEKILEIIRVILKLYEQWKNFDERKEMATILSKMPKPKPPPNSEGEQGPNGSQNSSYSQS
Test: CDK8 inhibitory activity (Kinase Tracer-236 / Eu-anti-GST fluorescence assay)
Assay type: binding
Set-up: concentration or dose not given beside the values
Details: test compound concentration given as '1 1.1.1\4' [sic]
Experimental: The compound of the present invention was evaluated for its CDK8 inhibitory activity and CDK19 inhibitory activity by the following method. […] After the addition, the plate was left standing at room temperature for 1 hour, and then, the fluorescence intensity (excitation wavelength 320 nm, fluorescence wavelength 615 nm, 665 nm, delay time 50 μsec) was measured using ann EnVision plate reader (PerkinElmer). […]
// note: answer is a bare numeric in %

For orientation, consider the following solved cases.
molecule=Cc1ncccc1Oc1sc(C(=O)NO)c2c1-c1sncc1CC2 value_type="Percent inhibition of CDK8 activity (%)" value=97
molecule=N=C(N)c1ccc(Oc2sc(C(N)=O)c3c2-c2sncc2CC3)cn1 value_type="Percent inhibition of CDK8 activity (%)" value=92
molecule=CNc1ccc(Oc2sc(C(N)=O)c3c2-c2sncc2CC3)cn1 value_type="Percent inhibition of CDK8 activity (%)" value=100
molecule=CC(=O)N(C)c1ccc(Oc2sc(C(N)=O)c3c2-c2sncc2CC3)c(C)n1 value_type="Percent inhibition of CDK8 activity (%)" value=101
molecule=NC(=O)c1sc(Oc2ccc(C(=O)N3CCC3)nc2)c2c1CCc1cnsc1-2 value_type="Percent inhibition of CDK8 activity (%)" value=101
molecule=Cc1nc(N(C)C(=O)C2CC2)ccc1Oc1sc(C(N)=O)c2c1-c1sncc1CC2 value_type="Percent inhibition of CDK8 activity (%)" value=103
molecule=CC(C)(O)CNC(=O)c1ccc(Oc2sc(C(N)=O)c3c2-c2sncc2CC3)cn1 value_type="Percent inhibition of CDK8 activity (%)" value=108
molecule=CN(C)C(=O)c1ccc(Oc2sc(C(N)=O)c3c2-c2sncc2CC3)cc1 value_type="Percent inhibition of CDK8 activity (%)" value=97

Next molecule, Percent inhibition of CDK8 activity (%) to be filled in.
Enter Percent inhibition of CDK8 activity (%) (test system CDK8/CycC (Homo sapiens, UniProt P49336)) for COCCNC(=O)c1ccc(Oc2sc(C(N)=O)c3c2-c2sncc2CC3)cn1 [Example 138]
103

Numbers sourced from patent US9745325B2.
